# testedOn: MCT4 (Homo sapiens (Human))
# Sequence (O15427 whole entry, looked up): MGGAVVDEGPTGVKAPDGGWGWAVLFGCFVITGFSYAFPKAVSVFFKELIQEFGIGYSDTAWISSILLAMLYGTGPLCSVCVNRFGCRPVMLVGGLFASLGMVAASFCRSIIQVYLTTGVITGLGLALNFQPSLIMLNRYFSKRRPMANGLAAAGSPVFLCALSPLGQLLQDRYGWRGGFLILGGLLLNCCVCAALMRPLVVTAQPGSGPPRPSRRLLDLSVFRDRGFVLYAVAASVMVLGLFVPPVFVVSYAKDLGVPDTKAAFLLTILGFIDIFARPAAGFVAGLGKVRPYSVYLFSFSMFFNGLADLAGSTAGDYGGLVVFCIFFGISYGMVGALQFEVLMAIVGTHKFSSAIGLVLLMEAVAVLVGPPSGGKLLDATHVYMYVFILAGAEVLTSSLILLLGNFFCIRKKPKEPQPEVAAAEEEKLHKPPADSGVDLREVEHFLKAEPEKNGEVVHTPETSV
# Sequence (P35613 whole entry partner, looked up): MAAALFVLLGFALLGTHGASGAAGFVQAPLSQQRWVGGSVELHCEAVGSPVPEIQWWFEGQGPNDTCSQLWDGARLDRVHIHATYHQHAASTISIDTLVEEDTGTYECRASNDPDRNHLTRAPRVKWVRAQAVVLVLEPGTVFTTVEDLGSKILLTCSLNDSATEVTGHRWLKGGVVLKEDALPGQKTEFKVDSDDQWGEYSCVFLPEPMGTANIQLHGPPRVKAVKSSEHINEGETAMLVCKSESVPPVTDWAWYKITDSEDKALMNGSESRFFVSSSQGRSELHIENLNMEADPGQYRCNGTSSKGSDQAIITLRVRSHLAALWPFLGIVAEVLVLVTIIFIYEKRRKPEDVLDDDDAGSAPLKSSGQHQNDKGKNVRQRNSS
# test: MCT4-mediated lactate transport in MDA-MB-231 breast cancer cells
# Assay type: cell-based
# conditionSet: MDA-MB-231 cells, native MCT4; 50 mM L-lactate
measuredMetric: log10 IC50 (log10 of the value in nM)
The base-10 logarithm of IC50, taken with IC50 in nM, is what appears here.

| mol | testedOn | recordedMeasurement |
| --- | --- | --- |
| CC(C)(OCc1cc(Oc2ccccc2)n(Cc2ccccc2Cl)n1)C(=O)O | MCT4 (Homo sapiens (Human)) | 2.60 |

Turning now to a further record.
Recorded log10 IC50 for COC(=O)C(C)(C)OCc1cc(-c2cccc(OC)c2)n(Cc2ccccc2Cl)n1 , please? 2.66
